measurement.description: folding stability dG unfold (combined trypsin and chymotrypsin); higher = more stable

| query.sequence | value.units | censoring.operator | folding stability dG unfold |
| --- | --- | --- | --- |
| SAGGSADPGKPIQIAIMIHIDPEPGRIEIPIYIMDDNRVRPVSIEFTPAGTLKIEVGNKEIEIPIKSAGGSA [r15_507_TrROS] | kcal/mol | = | 2.24 |
| SAGGSAGGSAGGKPNEVRVANIPIYRRLENGGWELIRPLPIVVPVDASVDFVLDAFKKYSAGGSAGGSAGGS [r10_470_TrMRF] | kcal/mol | = | 0.658 |
| SAGAAAIAEKLGFSPELVEILSVEDVEYTIVVRRTGEPVKMKRPTVKVLVTDPSVPKETTAEVPVAELASAG [r5_517_JUSTAS] | kcal/mol | = | -0.714 |
| SAGGSDKLYIRNPDHTIEIDEVKEPPDGEKYVRIRHEPPDGKEKEHEFPPDELADKFGLPPDNIEISAGGSA [r2_262_TrROS] | kcal/mol | = | -0.101 |
| SAGGNWIWRIKFPGRSIHFNWEQGNIEIWPPDGEEKTIPLPPGEPLEEFADEFAEKNGFDKVEIEPVPSAGG [r13_852_TrROS] | kcal/mol | = | 1.95 |
| SAGGSAGGSREIKIDDFERHNGYYYITVEIKDPNNGKKRPLEIPYPPNQPNADRFAKDIADELSAGGSAGGS [r12_415_TrROS] | kcal/mol | < | -1 |
| SAGGSAGGSAGKKIEIDEANPEENMYRISFPDKRTHQFDSAEDLKEQIPPGIPVEIEPLKSAGGSAGGSAGG [r17_295_TrROS] | kcal/mol | < | -1 |
